target: furin, P09958; assay: furin cleavage Z-score vs untreated control; higher = more cleavage, active = 3.5 or more, inactive = 1 or less, 8 variable residues between constant flanks; conditions: 15 min;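 note: purified furin at 1:10 enzyme:substrate in 50 mM HEPES pH 7.5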
Sequence (P09958 whole entry): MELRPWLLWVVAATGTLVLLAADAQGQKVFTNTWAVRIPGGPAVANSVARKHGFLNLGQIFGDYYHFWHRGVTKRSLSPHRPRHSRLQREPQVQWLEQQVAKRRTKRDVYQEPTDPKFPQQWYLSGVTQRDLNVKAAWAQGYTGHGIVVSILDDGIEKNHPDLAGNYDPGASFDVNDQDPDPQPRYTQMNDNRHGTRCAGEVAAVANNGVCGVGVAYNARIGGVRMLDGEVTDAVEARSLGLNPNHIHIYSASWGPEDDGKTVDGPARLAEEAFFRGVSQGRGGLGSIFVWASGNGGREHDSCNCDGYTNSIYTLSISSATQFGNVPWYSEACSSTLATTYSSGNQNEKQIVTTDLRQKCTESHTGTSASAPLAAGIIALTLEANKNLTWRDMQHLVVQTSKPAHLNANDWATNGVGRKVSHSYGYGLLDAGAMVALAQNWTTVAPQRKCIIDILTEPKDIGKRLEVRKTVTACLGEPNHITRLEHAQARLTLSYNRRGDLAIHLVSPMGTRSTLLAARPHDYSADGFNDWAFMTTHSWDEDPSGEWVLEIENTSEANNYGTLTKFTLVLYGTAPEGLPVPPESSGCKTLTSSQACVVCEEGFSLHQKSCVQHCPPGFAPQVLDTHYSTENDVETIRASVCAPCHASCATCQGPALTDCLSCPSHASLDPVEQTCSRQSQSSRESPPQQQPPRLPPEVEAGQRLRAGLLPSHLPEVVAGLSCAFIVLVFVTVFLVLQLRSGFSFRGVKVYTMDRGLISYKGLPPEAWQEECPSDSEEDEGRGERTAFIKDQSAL
This is one part of the list. The hit rate among all sequences tested is not known here.
Assay Endpoint: furin cleavage Z-score
Just the number.

Past entries and their recorded results:
Residues: CARGPRSATHAGNASASA [FS-1894]
Numeric Readout: 2.79
//
Residues: CARDVRLVDAAGNASASA [FS-2655]
Numeric Readout: -0.757
//
Residues: CAPAIASLMAAGNASASA [HC1053]
Numeric Readout: 1.04
//
Residues: CARYRRGFIHAGNASASA [FS-1810]
Numeric Readout: 3.75
//
Residues: CARYRRVITVAGNASASA [FS-1844]
Numeric Readout: -0.579
//
Residues: CARLRRLAEGAGNASASA [FS-2715]
Numeric Readout: -0.389
//
Residues: CARPPRGFQPAGNASASA [FS-3019]
Numeric Readout: -0.836
//
Residues: CARYRRHGTHAGNASASA [FS-1942]
Numeric Readout: 5.79
//
Residues: CAEVVTSTHVAGNASASA [HC2235]
Numeric Readout: 0.167
//
Residues: CARPPRSTCQAGNASASA [FS-2580]
Numeric Readout: 3.89

Okay, now this sequence:
Could you tell me which furin cleavage Z-score is on file for CARDRRRLEQAGNASASA [FS-2483] ?
0.963
